# Test system: MS2 coat protein
# measurement_protocol: apparent Kd, MS2 coat protein; higher = weaker binding; RNA-MaP array; FMN 200 µM where present
# settings: ligand present: flavin mononucleotide; designed as: ON switch for flavin mononucleotide
measurement_kind: apparent Kd (nM)
Answer with a number only, understood to be in nM.

Example entries and their recorded answers appear below.
1) GCCAUCGUAUGAGGAUAUGGCACCGAAACGGUGCCAGAAGGCAUGUCAAUAGACAUGAGGAUCACCCAUGUUUUAUCGAUGGCA
23.5
2) GCUGUGGCAUGAGGAUAUGGUCUGCUUUGCAGACCAGAAGGCAUGUCAAUAGACAUGAGGAUCACCCAUGUAGUUAACACAGCA
38.6
3) GUAGCUAUCGGAGGAUAUUCAUACUGGAAACGGACAUGAGGAUCACCCAUGUGGCGAAAGCCUUGGGAGAAGGCCGAUCGCUAC
8.13
4) CCGGAAACGGGUAGCCUGACAUGAGGAUCACCCAUGUGAUCAGAGGAUAUGGAUCCUAAUUGGAUCCAGAAGGCUGUUGGCUAC
27.5
5) CCGAGGCAAAUAAAACAUGAGGAUCACCCAUGUGAGUCUCAUGAGGAUAUGCAGGUCAAAGACUUGCAGAAGGCAUGGCUUCGG
146
6) CGACAAGUCGUAGGAUAUGGUGAUGUACAUGAGGAUCACCCAUGUCCGUCUUCUCUCACAAGAUGCCAGAAGGGCGACUUCCGG
404
7) ACACGAAAGUCAGGAUAUGUAUCAGCACGAUAGUUACAUGAGGAUCACCCAUGUUUCACGGGCCAACAGAAGGGACAGGGUGGC
7.62
8) UGGUACAUCAUAGGAUAUCGUGUGUAAACAUGAGGAUCACCCAUGUCAUACGAGAGUAUGUCGAUCGAGAAGGGUGAUGUACCU
25.8
9) AGACUGAAGCAAGGAUAUUGUAAGGUUAUCGUACAAGAAGGUGCUGUUUAUGUCUCUUAACAUGAGGAUCACCCAUGUUUUGAA
18.1
10) GGUCGUCACAUAUACAUGAGGAUCACCCAUGUCAAAAGACAUGAGGAUAUGGAUAAUAAUAUAAACCAGAAGGCAUGGACGACC
59.6

[in] Data request, read-out apparent Kd, for "CCCUUUAGAAAAGGGACAUGAGGAUCACCCAUGUAGGCUGCACAGGAUAUCGAUCGGAGGCGGUACGAGAAGGGUGAUGUCAUU"
[out] 72.1

[in] Data request, read-out apparent Kd, for "UUGGACGACGUAGGAUAUGUAGGAUAUUCCUACAUGAGGAUCACCCAUGUUGACAUGGAAGAAGGACAGAAGGACGAUGUCCAU"
[out] 5.57

[in] Data request, read-out apparent Kd, for "GUCGGAAACGACAAAAGUAGCAUACGAGAAGGCUGAUCCACGACAUGAGGAUCACCCAUGUACUUAGAGGAUAUUGGAUGCUAC"
[out] 26.1

[in] Data request, read-out apparent Kd, for "ACAUGAGGAUCACCCAUGUUCACAUAGGAUAUUGAUUAUAUUGGUUAUAGAAUAGUUAUAAUGCUCAAGAAGGAUGCCAGUUGU"
[out] 8.94

[in] Data request, read-out apparent Kd, for "CGCUACGUUUCGUAGCAGCUAGGUGAGGAUAUUCAAUUUUUCACAUGAGGAUCACCCAUGUAUGUGAAGAAGGCGCCUAGAAAA"
[out] 4.78

[in] Data request, read-out apparent Kd, for "AAAACAUGAGGAUCACCCAUGUAAAGAACGGUUAAUAAAUGUGAGGAUAUACUAAAAUUUACGUAGUAGAAGGCACUGGGUACA"
[out] 25.1
